Tested on: PIP5K2C
Construct: gene PIP4K2C
assay_context: concentration: 1 μM, replicates: in singlicate; n = 1;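 note: KINOMEscan kinase panel screen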
Form field: %Inh (one value per entry).
// units = %; emit number, no label

> print(dat)
                            molecule.smiles  recorded.metric  measured
1  Cn1cc(-c2ccc3c(c2)CCN3C(=O)Cc2cccc(Cl)c2)c2c(N)ncnc21             %Inh         1
2  Cl.NC(=O)c1cccc(Nc2nccc(Nc3ccc(Oc4c(Cl)cccc4Cl)c(Cl)c3)n2)c1             %Inh        64
3  COC(=O)Nc1nc2cc(Oc3ccc(NC(=O)Nc4cc(C(F)(F)F)ccc4F)cn3)ccc2[nH]1.Cl.Cl             %Inh        19

Note: attention shifts to another entry.
For the molecule `O=c1[nH]cc(-c2ccc(N3CCOCC3)cc2)c2sc(-c3cn[nH]c3)cc12` , give its measured %Inh value.
0

----------
Tested on: RSK4(Kin.Dom.1-N-terminal)
Construct: gene RPS6KA6
assay_context: concentration: 1 μM, replicates: in singlicate; n = 1
Form field: %Inh (one value per entry).
// units = %; emit number, no label

// worked examples, %Inh included
> print(dat)
                                   compound  recorded.metric  measured
1  O=C(Nc1cccc(Oc2ccc3nc(NC(=O)C4CC4)cn3n2)c1)c1ccccc1C(F)(F)F             %Inh         0
2  Cc1ccc(C(=O)Nc2ccc(Nc3ccnc4cc(-c5nccs5)ccc34)cc2O)cc1.Cl [GW494702]             %Inh         0
3  COc1cccc(NC(=O)NC2CCN(c3ccnc(Nc4cc(OC)c(OC)c(OC)c4)n3)C2)c1 (stereo not shown) [GSK1379763]             %Inh         0
4  Cc1occc1-c1ncc(OC[C@@H](N)Cc2c[nH]c3ccccc23)cc1-c1ccc2[nH]nc(C)c2c1.O=C(O)C(F)(F)F [GSK682037]             %Inh        61
5  COC(=O)Nc1nc2ccc(Oc3ccc(NC(=O)Nc4cc(C(F)(F)F)ccc4F)cc3)cc2n1C.Cl [GW692089]             %Inh         0

For the compound COc1cc(Nc2nccc(-c3c(-c4cccc(NC(=O)c5c(F)cccc5F)c4)nn4ccccc34)n2)cc(OC)c1OC [GSK323521] , give its measured %Inh value.
0

For the compound COc1cc(Nc2nccc(N3CCC(NC(=O)Nc4cccc(C(C)=O)c4)C3)n2)cc(OC)c1OC (stereo not shown) [GSK1379753] , give its measured %Inh value.
15

----------
Tested on: MAK
assay_context: concentration: 1 μM, replicates: in singlicate; n = 1
recorded_metric: %Inh

> print(dat)
                                   molecule  recorded.metric  measured
1  O=C(O)C(F)(F)F.O=C(O)C(F)(F)F.O=c1[nH]ccc2nc(N[C@@H]3CCCNC3)nc(Nc3ccc(S(=O)(=O)N4CCOCC4)cc3)c12             %Inh        0%
2  COc1cccc(-c2ccc3c(NC(=O)C4CC4)n[nH]c3n2)c1             %Inh       24%
3  Cc1ccc(C(=O)Nc2ccc(Nc3ccnc4cc(-c5nccs5)ccc34)cc2O)cc1.Cl             %Inh       46%

For the molecule `Cn1cc(-c2[nH]c3cc(NC(=O)[C@H](N)C4CCCCC4)cc4c3c2C=NNC4=O)cn1` , give its measured %Inh value.
0%
